Reference source: patent EP4471048A1

Listed molecules paired with reported Emax
# tested-on: IL-23 mediated signalling (Homo sapiens, UniProt Q5VWK5)
# Sequence (Q5VWK5 24-629 limits assumed): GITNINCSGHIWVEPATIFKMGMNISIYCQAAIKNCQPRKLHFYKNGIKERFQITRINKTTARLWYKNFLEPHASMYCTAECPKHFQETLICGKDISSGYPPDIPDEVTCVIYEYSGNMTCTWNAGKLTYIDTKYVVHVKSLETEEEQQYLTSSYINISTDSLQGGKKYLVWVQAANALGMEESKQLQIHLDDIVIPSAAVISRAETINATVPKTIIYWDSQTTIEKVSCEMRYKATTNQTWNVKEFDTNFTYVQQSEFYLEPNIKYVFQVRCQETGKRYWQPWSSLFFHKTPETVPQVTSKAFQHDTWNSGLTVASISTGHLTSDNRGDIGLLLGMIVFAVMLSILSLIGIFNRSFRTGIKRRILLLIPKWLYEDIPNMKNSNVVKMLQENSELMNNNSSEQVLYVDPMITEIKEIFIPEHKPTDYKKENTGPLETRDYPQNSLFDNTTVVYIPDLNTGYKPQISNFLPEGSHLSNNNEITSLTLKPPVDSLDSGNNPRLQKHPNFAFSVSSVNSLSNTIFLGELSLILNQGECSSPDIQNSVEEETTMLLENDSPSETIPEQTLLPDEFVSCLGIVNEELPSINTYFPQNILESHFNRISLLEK
# experimental-details: Functional inhibition of IL-23 mediated STAT3 signalling (phospho-STAT3 MSD) in DB cells
# Format: cell-based
# experimental-context: Table 3-2; maximal inhibitory response, DB cells, hIL-23 at EC80; read-out: hIL-23 (pSTAT3) antagonist % inhibition
*1 amine or outer side, *2 acyl side, *3 side chain or, on linkers, in order; H or OH if unused. Where a SMILES comes first, the peptide text is derived from it. Bridges are numbered along the chain shown (N, C = ends). [ ]: non-standard residue; d: D form. 2Nal = N[C@@H](Cc1ccc2ccccc2c1)C(=O)O; AEF = NCCOc1ccc(C[C@H](N)C(=O)O)cc1; X1 = O=C(Cc1ccc(CN[*:1])cc1)[*:2]; αMeL = CC(C)C[C@](C)(N)C(=O)O; CH2COCH2 = O=C(C[*:1])C[*:2]
measured-property: Emax (%)

| molecule | measured-property | unit-name | data-value |
| --- | --- | --- | --- |
| CC(C)C[C@]1(C)NC(=O)[C@H](Cc2ccc3ccccc3c2)NC(=O)[C@H](Cc2ccc(OCCN)cc2)NC(=O)[C@@H]2CSCC(=O)CSC[C@H](NC(=O)[C@H](CO)NC(=O)Cc3ccc(cc3)CNC(=O)CC[C@@H](C(=O)N[C@@H](CCCNC(=N)N)C(N)=O)NC1=O)C(=O)N[C@@H](Cc1c[nH]c3ccccc13)C(=O)N[C@@H](CCC(N)=O)C(=O)N2 [Ref 52, reference compound] ([X1]SCWQC[AEF][2Nal][αMeL]ER-NH2; linker 3-6 via CH2COCH2; lactam N-10) | Emax | % | 103 |
| CC(C)C[C@]1(C)NC(=O)[C@H](Cc2ccc3ccccc3c2)NC(=O)[C@H](Cc2ccc(OCCN)cc2)NC(=O)[C@@H]2CSCC(=O)CSC[C@H](NC(=O)[C@H](CO)NC(=O)Cc3ccc(cc3)CNC(=O)CC[C@@H](C(=O)N[C@@H](CO)C(N)=O)NC1=O)C(=O)N[C@@H](Cc1c[nH]c3ccccc13)C(=O)N[C@@H](CCC(N)=O)C(=O)N2 [Ref 81, reference compound] | Emax | % | 95 |
| CC(C)C[C@]1(C)NC(=O)[C@H](Cc2ccc3ccccc3c2)NC(=O)[C@H](Cc2ccc(OCCN)cc2)NC(=O)[C@@H]2CCC(=O)N[C@H](CCCCNC(=O)CC[C@@H](C(=O)N[C@@H](CCN)C(=O)N[C@@H](Cc3cccnc3)C(N)=O)NC1=O)C(=O)N[C@@H]([C@@H](C)O)C(=O)N[C@@H](C(C)C)C(=O)N[C@@H](Cc1c[nH]c3ccccc13)C(=O)N[C@@H](CCC(N)=O)C(=O)N2 | Emax | % | 102 |

###

pKi: −log10 of the molar value. *1 amine or outer side, *2 acyl side, *3 side chain or, on linkers, in order; H or OH if unused. Where a SMILES comes first, the peptide text is derived from it. Bridges are numbered along the chain shown (N, C = ends). [ ]: non-standard residue; d: D form. 2Nal = N[C@@H](Cc1ccc2ccccc2c1)C(=O)O; AEF = NCCOc1ccc(C[C@H](N)C(=O)O)cc1; X1 = O=C(Cc1ccc(CN[*:1])cc1)[*:2]; 3Pal = N[C@@H](Cc1cccnc1)C(=O)O; αMeL = CC(C)C[C@](C)(N)C(=O)O; CH2COCH2 = O=C(C[*:1])C[*:2]; Dab = NCC[C@H](N)C(=O)O
Quick record: pKi, human IL-23R (Homo sapiens, UniProt Q5VWK5).
measured-property: pKi

| compound | tested-on | measured-property | data-value |
| --- | --- | --- | --- |
| CC(C)C[C@]1(C)NC(=O)[C@H](Cc2ccc3ccccc3c2)NC(=O)[C@H](Cc2ccc(OCCN)cc2)NC(=O)[C@@H]2CSCC(=O)CSC[C@H](NC(=O)[C@H](CO)NC(=O)Cc3ccc(cc3)CNC(=O)CC[C@@H](C(=O)N[C@@H](CCN)C(=O)N[C@@H](Cc3cccnc3)C(N)=O)NC1=O)C(=O)N[C@@H](Cc1c[nH]c3ccccc13)C(=O)N[C@@H](CCC(N)=O)C(=O)N2 [Ref 120, reference compound] ([X1]SCWQC[AEF][2Nal][αMeL]E[Dab][3Pal]-NH2; linker 3-6 via CH2COCH2; lactam N-10) | human IL-23R (Homo sapiens, UniProt Q5VWK5) | pKi | 11.03 |
| CC(C)C[C@@H]1NC(=O)[C@H](Cc2c[nH]c3ccccc23)NC(=O)[C@H](Cc2c[nH]c3ccccc23)NC(=O)[C@@H]2CSCC(=O)CSC[C@H](NC(=O)[C@H]([C@@H](C)O)NC(=O)[C@@H](NC(=O)CN)CSCC(=O)CSC[C@@H](C(=O)N[C@@H](CO)C(N)=O)NC1=O)C(=O)N[C@@H](Cc1c[nH]c3ccccc13)C(=O)N[C@@H](CCC(=O)O)C(=O)N2 (single isomer, unassigned) [I1 (isomer 3), H-GC(1a)TC(2a)WEC(2a)WWLC(1a)S-[NH2], reference compound] | human IL-23R (Homo sapiens, UniProt Q5VWK5) | pKi | 6.98 |

###

# experimental-details: Peptide stability in simulated gastric fluid (SGF)
# Type: in vitro ADME
# experimental-context: pig, simulated gastric fluid (SGF) with porcine pepsin (3.2 g/L), pH 1.2, 10 µM, 37 °C, porcine pepsin, pH 1.2, 4 h; read-out: SGF (% remaining 4 h)
Listed compounds paired with reported remaining at 4 h, 10 µM

| record-smiles | remaining at 4 h, 10 µM [%] |
| --- | --- |
| CC[C@H](C)[C@@H]1NC(=O)[C@@H]2CCCCNC(=O)CC[C@@H](C(=O)N[C@@H](Cc3cnc4ccccc4c3)C(=O)N[C@@H](Cc3cccnc3)C(=O)NC)NC(=O)[C@](C)(CC(C)C)NC(=O)[C@H](Cc3ccc4ccccc4c3)NC(=O)[C@H](Cc3ccc(OCCN)cc3)NC(=O)[C@H](CCC(=O)N2)NC(=O)[C@H](CCC(N)=O)NC(=O)[C@H](Cc2c[nH]c3ccccc23)NC(=O)[C@H](C(C)C)NC1=O | 100 |
| CNC(=O)[C@H](Cc1cccnc1)NC(=O)[C@H](CCN)NC(=O)[C@@H]1CCC(=O)NCCCC[C@@H]2NC(=O)CC[C@H](NC(=O)[C@H](CCC(N)=O)NC(=O)[C@H](Cc3c[nH]c4ccccc34)NC(=O)CNC2=O)C(=O)N[C@@H](Cc2ccc(OCCN)cc2)C(=O)N[C@@H](Cc2ccc3ccccc3c2)C(=O)N[C@@](C)(CC(C)C)C(=O)N1 | 101 |

###

# experimental-details: Peptide stability in simulated intestinal fluid (SIF)
# Format: in vitro ADME
# experimental-context: pig, 37 °C, porcine pancreatin, pH 6.8, 1 h

| record-smiles | unit-name | remaining at 1 h, 10 µM |
| --- | --- | --- |
| CNC(=O)[C@H](Cc1cccnc1)NC(=O)[C@H](CCN)NC(=O)[C@@H]1CCC(=O)NCCCC[C@@H]2NC(=O)CC[C@H](NC(=O)[C@H](CCC(N)=O)NC(=O)[C@H](Cc3c[nH]c4ccccc34)NC(=O)CCCNC2=O)C(=O)N[C@@H](Cc2ccc(OCCN)cc2)C(=O)N[C@@H](Cc2ccc3ccccc3c2)C(=O)N[C@@](C)(CC(C)C)C(=O)N1 | % | 88 |
| CNC(=O)[C@H](Cc1cccnc1)NC(=O)[C@H](CCN)NC(=O)[C@@H]1CCC(=O)NCCCC[C@@H]2NC(=O)CC[C@H](NC(=O)[C@H](CCC(N)=O)NC(=O)[C@H](Cc3c[nH]c4ccccc34)NC(=O)CCNC2=O)C(=O)N[C@@H](Cc2ccccn2)C(=O)N[C@@H](Cc2ccc3ccccc3c2)C(=O)N[C@@](C)(CC(C)C)C(=O)N1 | % | 92 |
| CNC(=O)[C@H](Cc1cccnc1)NC(=O)[C@H](Cc1cnc[nH]1)NC(=O)[C@@H]1CCC(=O)NCCCC[C@@H]2NC(=O)CC[C@H](NC(=O)[C@H](CCC(N)=O)NC(=O)[C@H](Cc3c[nH]c4ccccc34)NC(=O)CCNC2=O)C(=O)N[C@@H](Cc2ccc(OCCN)cc2)C(=O)N[C@@H](Cc2ccc3ccccc3c2)C(=O)N[C@@](C)(CC(C)C)C(=O)N1 | % | 77 |

###

# experimental-details: Peptide stability in simulated intestinal fluid (SIF)
# Assay type: in vitro ADME
# experimental-context: pig, 37 °C, porcine pancreatin, pH 6.8, 1 h
*1 amine or outer side, *2 acyl side, *3 side chain or, on linkers, in order; H or OH if unused. Where a SMILES comes first, the peptide text is derived from it. Bridges are numbered along the chain shown (N, C = ends). [ ]: non-standard residue; d: D form. 2Nal = N[C@@H](Cc1ccc2ccccc2c1)C(=O)O; AEF = NCCOc1ccc(C[C@H](N)C(=O)O)cc1; X1 = O=C(Cc1ccc(CN[*:1])cc1)[*:2]; αMeL = CC(C)C[C@](C)(N)C(=O)O; CH2COCH2 = O=C(C[*:1])C[*:2]
Criterion: remaining at 1 h, 10 µM strictly under 90%. Met: YES. Not met: NO.

| compound | group-label |
| --- | --- |
| CC(C)C[C@]1(C)NC(=O)[C@H](Cc2ccc3ccccc3c2)NC(=O)[C@H](Cc2ccc(OCCN)cc2)NC(=O)[C@@H]2CSCC(=O)CSC[C@H](NC(=O)[C@H](CO)NC(=O)Cc3ccc(cc3)CNC(=O)CC[C@@H](C(=O)N[C@H](CCCNC(=N)N)C(N)=O)NC1=O)C(=O)N[C@@H](Cc1c[nH]c3ccccc13)C(=O)N[C@@H](CCC(N)=O)C(=O)N2 [Ref 80, reference compound] ([X1]SCWQC[AEF][2Nal][αMeL]E[dR]-NH2; linker 3-6 via CH2COCH2; lactam N-10) | YES |
| CNC(=O)[C@H](Cc1cccnc1)NC(=O)[C@H](CCN)NC(=O)[C@@H]1CCC(=O)NCCCC[C@@H]2NC(=O)CC[C@H](NC(=O)[C@H](CCC(N)=O)NC(=O)[C@H](Cc3c[nH]c4ccccc34)NC(=O)CCNC2=O)C(=O)N[C@@H](Cc2cccnc2)C(=O)N[C@@H](Cc2ccc3ccccc3c2)C(=O)N[C@@](C)(CC(C)C)C(=O)N1 | NO |
| CC[C@H](C)[C@H]1CC(=O)N[C@@H](Cc2c[nH]c3ccccc23)C(=O)N[C@@H](CCC(N)=O)C(=O)N[C@H]2CCC(=O)N[C@@H](CCCCNC(=O)CC[C@@H](C(=O)N[C@@H](CCN)C(=O)N[C@@H](Cc3cccnc3)C(=O)NC)NC(=O)[C@](C)(CC(C)C)NC(=O)[C@H](Cc3ccc4ccccc4c3)NC(=O)[C@H](Cc3ccc(OCCN)cc3)NC2=O)C(=O)N1 | NO |
